These entries and their values trace back to patent US20070213291A1.

Field: % INHIBITION of Jurkat proliferation at suboptimal concentration. Provide a value for each of the sequences that follow.
# Tested on: Jurkat human leukemia T cells
# assay-protocol: Inhibition of Jurkat human leukemia T cell proliferation (MTT reduction)
# Assay type: cell-based
# condition-notes: 5.0 μg/ml of each 6 base sequence, alone or two together
Numbers only here, please. The scale is %.

The reported value for TGGTTG [SEQ ID NO:29] in terms of % INHIBITION of Jurkat proliferation at suboptimal concentration is −1

The reported value for GGGTGG [SEQ ID NO:25] in terms of % INHIBITION of Jurkat proliferation at suboptimal concentration is 5

The reported value for TTGTGG [SEQ ID NO:39] in terms of % INHIBITION of Jurkat proliferation at suboptimal concentration is 4

The reported value for GGTTGG [SEQ ID NO:41] in terms of % INHIBITION of Jurkat proliferation at suboptimal concentration is 4

The reported value for GTGTGT [SEQ ID NO:10] in terms of % INHIBITION of Jurkat proliferation at suboptimal concentration is 2

The reported value for TTGTTT [SEQ ID NO:26] in terms of % INHIBITION of Jurkat proliferation at suboptimal concentration is −2
